# Test description: soluble fraction after stress (log2 fold change); higher = more stays soluble; pooled small domains, quantitative proteomics
# Measurement context: stress: pH 4
Here, each record is paired with measured soluble fraction (log2) data.
Reported metric: soluble fraction (log2)

>  <Sequence entry>
HMENVLFVNVLSMTVRELAEMMKIPVNKIIQDSFSKGIMMNPNQRLEYDNFAELAKKYGITVKI

>  <Measurement>
-0.691

$$$$
>  <Sequence entry>
HMSSDLDQYMKNIRKQHNLSKREFAKQLGISAATIVRIENGITVSPSKNLISKLAYYLQKSEVEILQDIQS

>  <Measurement>
-0.393

$$$$
>  <Sequence entry>
HMDYADISYKIFMNHIKNGQVERVELSGDPRIMGKLKDGTYFVTDNPRTENFKEFLLLNNVQVIETN

>  <Measurement>
-0.772

$$$$
>  <Sequence entry>
HMVFQTAAEKAYEIISKKIMKGEYEPGMRLVRRQLAQELGVSPIPILEAMKRLEQDGLIEYKAHWGSIVTI

>  <Measurement>
-0.56

$$$$
>  <Sequence entry>
HMKHVDLDNNERYIYGIIGSTKIHVDEVVEKSGMETKHVMAILTNLELKEAIKGIPGGFYLR

>  <Measurement>
-1.19

$$$$
>  <Sequence entry>
HMHPFELNTVTEGQLKRLPFLSDLQIRELLEYRSRYGKMLTLYELKNVEAFDLETISLLVPFIYISEI

>  <Measurement>
-1.44

$$$$

###

# Test description: soluble fraction after stress (log2 fold change); higher = more stays soluble; pooled small domains, quantitative proteomics
# Measurement context: stress: pH 4
Listed next: entries and their corresponding soluble fraction (log2).

>  <Sequence entry>
HMTDYREILRLLSLGLSRTQIADSLNVSRTTVIHTLQRAVAQELDWQTAEGMSDRELVAKLFPV

>  <soluble fraction (log2)>
-0.564

$$$$
>  <Sequence entry>
HMVVVMNADAEADEIKRVKWNLEQMLFRTQVIYGVKRIVIGAIGDQREVDLSEIEQMPKVDKIVRISK

>  <soluble fraction (log2)>
-1.39

$$$$
>  <Sequence entry>
HMADLIVFTTDANKEKKVDDETYFYLDVVSDGKLVENYELTEKQYNYIKDLGVGEYVYNEKGKLDSYTAFT

>  <soluble fraction (log2)>
-1.12

$$$$
>  <Sequence entry>
HMVQIIQLQGTDKRLYELVAPLVMNPEILKQNYNYPFRTSEDFVWFVAVDKKKVIGFIPVEEKKKEYVI

>  <soluble fraction (log2)>
-0.275

$$$$
>  <Sequence entry>
HMPDTETLTPRQRQILDLVQELGFTTIETLAERFGVSAQTVRREIIRLQAGNFLQRFHGGAGLASGGIRSA

>  <soluble fraction (log2)>
-0.325

$$$$
>  <Sequence entry>
HMIPENKRVLISLTYIYGIGKKISQDILEKANIDSSIKTSQLTDDDVARIRQLIENDYLVEGELRV

>  <soluble fraction (log2)>
0.00777

$$$$
>  <Sequence entry>
HMTKVMVPNVVGMSRGEAEEALRGVKLQVDLKREVSDDPEVKPEEVLRQTPDAQTSVPQGSVVTLYVADKP

>  <soluble fraction (log2)>
-0.407

$$$$

###

# Test description: soluble fraction after stress (log2 fold change); higher = more stays soluble; pooled small domains, quantitative proteomics
# Measurement context: stress: pH 4
Here, each record is paired with measured soluble fraction (log2) data.
Reported metric: soluble fraction (log2)

>  <Sequence entry>
HMDEQLAWLYRKINAFSEIDKALILLYLEDKKYDEIAETLGISSVNARVKMNRIKKRLKEMINDR

>  <Measurement>
-1.02

$$$$
>  <Sequence entry>
HMHQVHKIDGVKYYLHLVEKGNTLYGISKQYNVSVERIEKANTEALSDGLKENQTLLIPVTSDNKKT

>  <Measurement>
0.0091

$$$$
>  <Sequence entry>
HMGVNNDIIKHRKLEFMIEMLPDTFTRKEANEIGEGLGISLATLTRYLSSDAFERTGHGRYRKKD

>  <Measurement>
0.139

$$$$
>  <Sequence entry>
HMISINVIGEMISGSYGNTPFSRTYEKDIYEQMVKLSDDADQAQTVEEYNKILAEFSLLTTEDLK

>  <Measurement>
-1.73

$$$$
>  <Sequence entry>
HMDGKPSLIISNGQINYKEMVKLRYSLEDLLFQLRQNSIKSIEEVEYAFLESNGKLSIFPYNFL

>  <Measurement>
-1.65

$$$$

Taken from the domain aggregation screens of Martell et al. (2025).
